tested on: SF-539; experiment: NCI tumour cell line growth inhibition, 48 h
The source made the active and inactive calls. No stated cut-off is given here; in the data, active = GI50 up to about 1.1 µM and inactive = higher.
Outcomes: active, inactive

• NC(CCC(=O)NC(CSCC1C(=O)Nc2ccccc21)C(=O)NCC(=O)O)C(=O)O (configuration not stated) = inactive
• Cc1cc(C=O)c2c(=O)c3c(O)ccc(/C=C/C(C)C)c3oc2c1 = inactive
• C=CCNC1=C2C[C@@H](C)C[C@@H](OC)[C@@H](OC(=O)CCCN)[C@H](C)/C=C(\C)[C@@H](OC(N)=O)[C@H](OC)/C=C\C=C(/C)C(=O)NC(=CC1=O)C2=O = inactive
• C/C(=N\NC(=S)N1CCN(c2ccccn2)CC1)c1cccc2cccnc12 = inactive
• COc1cc2c(cc1OCCN1C(=O)c3cccc4cccc(c34)C1=O)N=C[C@@H]1CCCN1C2=O = inactive
• c1nc(NCCc2c[nH]cn2)c2nc[nH]c2n1 = inactive
• COC(=O)c1nn2ccc3ccccc3c2c1C(=O)OC = inactive
• Cc1ccccc1S(=O)(=O)Nn1cnc2ccc(S(=O)(=O)Nc3ccc(Cl)cc3)cc2c1=O = inactive
• O=C(NCCN1CCCCC1)c1ccc(I)cc1 = inactive
• CCOC(=O)C(NC(=O)C(CCCCNP(=O)(OCC)OCC)NC(=O)C(C)NC(C)=O)C(C)C (configuration not stated) = inactive
• CN1CCC(C(O)(c2ccccc2)c2ccc(Br)cc2)CC1 (configuration not stated) = inactive
• CN(C)N1C(=C(C#N)C#N)C(c2ccccc2)CC1C#N (configuration not stated) = inactive
• CO[C@@H]1C[C@H]2[C@@H]3CC[C@H]([C@@H](C)CO)[C@@]3(C)CC[C@@H]2[C@@]2(C)CC[C@H]3C[C@]312 = inactive
• C=C(C)C1Cc2cc(C(C)=O)ccc2O1 (configuration not stated) = inactive
• CCN(CC)CCNC(=O)c1ccccc1NC(=O)C(=O)Nc1ccccc1C(=O)NCCN(CC)CC = inactive
• CC(=O)Nc1ccc(/N=C2\C(c3ccccc3)=C(SC3=C(c4ccccc4)/C(=N\c4ccc(NC(C)=O)cc4)c4ccccc43)c3ccccc32)cc1 = active
• CCCCc1ccc(Nc2nc(S)c3[nH]cnc3n2)cc1 = inactive
• O=[N+]([O-])c1ccc(Cl)cc1N/N=C/c1ccnc2ccccc12 = inactive
• CC(C)(C)[Si](C)(C)OCC1CCC(n2cnc3c(=O)[nH]cnc32)O1 (configuration not stated) = inactive
• Oc1ccc[nH]c1=[Se] = inactive
• Cc1ccccc1C(=O)Oc1ccc(O)cc1 = inactive
• Cc1cccc2c1Oc1cc(Cl)ccc1C2NC(=O)CCN1CCN(CCO)CC1 (configuration not stated) = inactive
• Cc1ccc2nc3[nH]nc(N)c3nc2c1 = inactive
• COc1ccc(-c2cc(O)c3ccc(C)nc3n2)cc1 = inactive
• O=C1C2C3CC4C5C3C1C5C1(SCCS1)C42 (configuration not stated) = inactive
• N#C/C(=C(/S)Nc1ccccc1)c1nc2ccccc2[nH]1 = inactive
• O=c1cc(O)cc2n1CCC2 = inactive
• O=[N+]([O-])c1ccc(OCCNc2cccc3ccccc23)cc1 = inactive
• COc1cccc(-c2cc(=O)c3ccc(C)nc3[nH]2)c1 = active
• O=C1C(Br)=CC2([N+](=O)[O-])CCNC3=C(C4=NCCc5c[nH]c(c54)C3=O)C2=C1Br (configuration not stated) = inactive
• COc1cc2ccc3c4cc(OC)c(OC)cc4c[n+](C)c3c2cc1O = inactive
• Nc1cccc(S(=O)(=O)NCC(=O)O)c1 = inactive

---

test system: BT-549; assay: NCI tumour cell line growth inhibition, 48 h
Activity calls are given as the source filed them. Cut-off read from the data, not from the text of the source: active = GI50 up to about 1.1 µM and inactive = higher.
Measured GI50, listed per entry.
experimental.readout: GI50

- Nc1nc2cc(CNc3ccc(C(=O)NC(CCC(=O)O)C(=O)O)cc3)ccc2nc1-c1ccccc1 (stereo not given): > 10 µM (inactive)
- O=C(NC1CCN(Cc2ccccc2)CC1)c1cccc(I)c1: 42.5 µM (inactive)
- NC(CCC(=O)NC(CSCC1C(=O)Nc2ccccc21)C(=O)NCC(=O)O)C(=O)O (stereo not given): 6.79 µM (inactive)
- CCN1C/C(=C\c2cc(OC)c(OC)c(OC)c2)C2=NN(c3ccccc3)C(c3cc(OC)c(OC)c(OC)c3)C2C1 (stereo not given): 6.75 µM (inactive)
- COc1ccc(Oc2nc3cc(C(F)(F)F)ccc3nc2C(C)C)cc1: 22.4 µM (inactive)
- CCNC1=C(NC(=O)CCl)C(=O)c2ccccc2C1=O: > 10 µM (inactive)
- CC(=O)NS(=O)(=O)c1ccc(NCc2cccc3c(=O)c4ccc(Cl)cc4oc23)cc1: > 54.2 µM (inactive)
- Cc1ccc(C2=CC(=O)OC(C[P+](c3ccccc3)(c3ccccc3)c3ccccc3)(c3ccccc3)O2)cc1 (stereo not given): 26.7 µM (inactive)
- COc1ccc(/C=C/C(=O)c2ccc(OC(=O)/C=C/c3ccccc3)cc2)cc1: 14.9 µM (inactive)
- COc1ccc(-n2c(C)nc3ccc(NC(=S)Nc4ccccc4)cc3c2=O)cc1: 70 µM (inactive)

---

Measured GI50 accompanies every entry in the list below.
tested on: OVCAR-3; assay: NCI tumour cell line growth inhibition, 48 h
Activity calls are given as the source filed them. No stated cut-off is given here; in the data, active = GI50 up to about 1.1 µM and inactive = higher. Where a SMILES comes first, the peptide text is derived from it. The star is where a group is joined. Boc = CC(C)(C)OC(=O)*
experimental.readout: GI50

• CCOP1(=O)C=CC(Cl)=C(C)C1 (configuration not stated) = 19.9 µM (inactive)
• C[C@]12CCCC(=O)C1C[C@H](C(=O)O)CC2 (some centres not stated) = > 100 µM (inactive)
• Cn1c(=O)oc2nc(-c3ccccc3)cc(C(F)(F)F)c21 = 32.8 µM (inactive)
• NC(=S)N/N=C1\C(=O)C=C(Nc2ccc(Cl)cc2Cl)c2ccccc21 = 21.3 µM (inactive)
• COc1cccc2c1C(=O)C1=C(C2=O)C(O)CC(C)(C)O1 (configuration not stated) = 13.1 µM (inactive)
• CO[C@@H]1C[C@H]2[C@@H]3CC[C@H]([C@@H](C)CO)[C@@]3(C)CC[C@@H]2[C@@]2(C)CC[C@H]3C[C@]312 = 45.1 µM (inactive)
• CC(=O)OCC1CCC(=C2C(=O)OC(C)(C)OC2=O)N1 (configuration not stated) = > 100 µM (inactive)
• O=C(N/N=C/c1cccc(O)c1O)N/N=C/c1cccc(O)c1O = 2.51 µM (inactive)
• CC1=[N+](C)CCCN1C = > 100 µM (inactive)
• Cc1cccc2c1Oc1cc(Cl)ccc1C2NC(=O)CCN1CCN(CCO)CC1 (configuration not stated) = 17.7 µM (inactive)
• COc1ccc(/C=C/C(=O)c2ccc(OC(=O)/C=C/c3ccccc3)cc2)cc1 = 32 µM (inactive)
• CCOC(=O)Cc1c(C)c2cc(C(=O)c3ccccc3)c(O)cc2oc1=O = 17.8 µM (inactive)
• CCOC(=O)CSc1nnc2cc(CN3CCCC3)c(-c3ccc(Cl)cc3)nn12 = > 100 µM (inactive)
• CC(C(O)c1ccccc1)N(C)/N=N/c1nc2c([nH]1)c(=O)n(C)c(=O)n2C (configuration not stated) = > 100 µM (inactive)
• CC1C2CC(CC2O)C1(C)C (configuration not stated) = > 100 µM (inactive)
• FC(F)(F)c1ccc(/C=N/C23CC4CC(CC(C4)C2)C3)cc1 = > 100 µM (inactive)
• COc1ccc(/C=C2\N=C(SC)N(CN3CCCCC3)C2=O)cc1 = > 100 µM (inactive)
• CC1(O)CCC2(C)C(=O)C1(C)CCC21OCCO1 (configuration not stated) = > 100 µM (inactive)
• NC(=O)CCC(NCc1c2ccccc2[n+]([O-])c2ccccc12)C(=O)O (configuration not stated) = > 100 µM (inactive)
• Cc1ccc(S(=O)(=O)Nc2cccc3c(=O)nc[nH]c23)cc1 = > 100 µM (inactive)
• COC(=O)c1cccc(N[C@@H]2c3cc4c(cc3C(c3cc(OC)c(O)c(OC)c3)[C@H]3C(=O)OCC32)OCO4)c1 (some centres not stated) = 2.07 µM (inactive)
• C/C(=N\O)c1ccc(OCc2cc(C(F)(F)F)cc(C(F)(F)F)c2)cc1 = > 100 µM (inactive)
• CC(=O)c1ccc2c(ccc(=O)n2C)c1 = > 100 µM (inactive)
• COc1ccc2cc(C(=O)O)ccc2c1OC = > 100 µM (inactive)
• Cc1cccc(-n2c(C)nc3ccc(NC(=S)Nc4ccccc4)cc3c2=O)c1 = 32.4 µM (inactive)
• COC(=O)C1(C(=O)OC)N=C(C)OC1C(C)C (configuration not stated) = > 100 µM (inactive)
• CCCCNC(=O)NNC(=O)c1cc(/C=C/c2cccc([N+](=O)[O-])c2)ncn1 = > 100 µM (inactive)
• COc1ccc(N2C(=O)[C@H]3CC(C)c4c([nH]c5ccccc45)[C@H]3C2=O)cc1 (some centres not stated) = 1.87 µM (inactive)
• COC(=O)Cc1c([C@@]2(C)CCCC(C)(C)C2)ccc2c1C(=O)OC2 = 5.25 µM (inactive)
• COc1ccc(-c2cc(-c3cc(C)ccc3O)nc(O)n2)cc1 = > 100 µM (inactive)
• CC(=O)OCC(OC(C)=O)C(OC(C)=O)C(/C=N/N(C(C)=O)S(=O)(=O)c1ccc(/C=C2\NC(=O)NC2=O)cc1)OC(C)=O (configuration not stated) = > 100 µM (inactive)
• C=CCn1c2c(c3ccccc3c1=O)C(=O)c1ccccc1-2 = > 100 µM (inactive)
• CC(C)CCC[C@@H](C)C1CCC2[C@@H]3CC=C4C[C@@H](C(=O)NCCN(C)C)CC[C@]4(C)C3CC[C@@]21C (some centres not stated) = 31.4 µM (inactive)
• CC(=O)NS(=O)(=O)c1ccc(NCc2cccc3c(=O)c4ccc(Cl)cc4oc23)cc1 = 44.6 µM (inactive)
• CC(C)(C)OC(=O)NC(Cc1ccccc1)C(=O)N1CCCC1C(N)=O (stereo not drawn) (Boc-Phe-Pro-NH2; configuration not given here) = > 100 µM (inactive)
• Cc1cc(=O)oc2c(OS(C)(=O)=O)c(OS(C)(=O)=O)ccc12 = > 100 µM (inactive)
• Cc1ccnc(NS(=O)(=O)c2ccc(NC3=CC(=O)C(=O)c4ccccc43)cc2)n1 = > 100 µM (inactive)
